# Organism: Rattus norvegicus
# assayName: DrugMatrix - Regimen: Daily Repeat
# Format: toxicity, organism-based, Sprague-Dawley
# Parameters: regimen Daily Repeat, gender Male, age 6-8 weeks
# condition: in vivo, po, 2 mg/kg, […], tissue Blood, route oral GAVAGE, dose level High, time 14 day, vehicle 100 % SALINE
quantityKind: ABSOLUTE BASOPHIL (cells/µL)
Please respond with the number in cells/µL and leave the unit unwritten.

Lookup: Any idea what ABSOLUTE BASOPHIL was measured for COc1cccc2c1C(=O)c1c(O)c3c(c(O)c1C2=O)C[C@@](O)(C(C)=O)C[C@@H]3O[C@H]1C[C@H](N)[C@H](O)[C@H](C)O1 ?
Found: 120

Values from ChEMBL document CHEMBL3885881
